test system: 633275-114-R-J1-PDC complex spheroids, viability; experiment: Anticancer human tumor 633275-114-R-J1-PDC patient-derived endometrial adenocarcinoma cell line growth inhibition [GQUAD]; conditions: second compound 3.16 µM; first compound 1 µM; stronger effect = lower value
Each item that follows carries a reported viability, T/C.
The figure you give is taken to be in %; do not add the unit.

Examples with answers:
C#Cc1c(F)ccc2cc(O)cc(-c3ncc4c(N5CC6CCC(C5)N6)nc(OCC56CCCN5CC(F)C6)nc4c3F)c12 (stereo not given) + Cc1cnc(CNC(=O)c2c(=O)c3ccc(N4CCCN(C)CC4)nc3n3c2sc2ccccc23)cn1: 31.5
O=C(c1cc(Cc2n[nH]c(=O)c3ccccc23)ccc1F)N1CCN(C(=O)C2CC2)CC1 + Cc1[nH]c2ccc(F)cc2c1-c1nc2c3cccnc3c3ncccc3c2[nH]1: 63.5
COc1cc(C2c3cc4c(cc3C(OC3OC5COC(C)OC5C(O)C3O)C3COC(=O)C23)OCO4)cc(OC)c1O (stereo not given) + CN(C)c1ccc(Nc2c3ccc(NC(=O)CCN4CCCC4)cc3nc3cc(NC(=O)CCN4CCCC4)ccc23)cc1: 36.4

So what's the measured viability, T/C for this one? CC(C)(O)C1CCC(Nc2ccc3ncc(-c4cccc(C(F)(F)F)c4)n3n2)CC1 (stereo not given) + Cc1[nH]c2ccc(F)cc2c1-c1nc2c3cccnc3c3ncccc3c2[nH]1
49.3

So what's the measured viability, T/C for this one? CC1COCCN1c1cc(C2(S(C)(=N)=O)CC2)nc(-c2ccnc3[nH]ccc23)n1 (stereo not given) + Cc1cnc(CNC(=O)c2c(=O)c3ccc(N4CCCN(C)CC4)nc3n3c2sc2ccccc23)cn1
30.6

====

Each item that follows carries a reported pIC50.
test system: 633275-114-R-J1-PDC complex spheroids, viability; assay: Anticancer human tumor 633275-114-R-J1-PDC cell line growth inhibition [GQUAD]; details: curve of first compound; second compound 1 µM;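 note: spheroids exposed to the agents for seven days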
pIC50: −log10 of the molar value.

Examples with answers:
CCCS(=O)(=O)Nc1ccc(F)c(C(=O)c2c[nH]c3ncc(-c4ccc(Cl)cc4)cc23)c1F + Cc1cnc(CNC(=O)c2c(=O)c3ccc(N4CCCN(C)CC4)nc3n3c2sc2ccccc23)cn1: > 7.50
CC(=O)O[C@H]1C(=O)[C@@]2(C)[C@H]([C@H](OC(=O)c3ccccc3)[C@]3(O)C[C@H](OC(=O)[C@H](O)[C@@H](NC(=O)c4ccccc4)c4ccccc4)C(C)=C1C3(C)C)[C@]1(OC(C)=O)CO[C@@H]1C[C@@H]2O + Cc1cnc(CNC(=O)c2c(=O)c3ccc(N4CCCN(C)CC4)nc3n3c2sc2ccccc23)cn1: > 7.50
COc1ncnc(C2CC2)c1-c1ncc2cnn(Cc3ccc(-c4nc(C(F)(F)F)cn4C(C)C)cc3)c2n1 + Cc1cnc(CNC(=O)c2c(=O)c3ccc(N4CCCN(C)CC4)nc3n3c2sc2ccccc23)cn1: > 7.50
CCCS(=O)(=O)Nc1ccc(F)c(C(=O)c2c[nH]c3ncc(-c4ccc(Cl)cc4)cc23)c1F + Cc1[nH]c2ccc(F)cc2c1-c1nc2c3cccnc3c3ncccc3c2[nH]1: 5.08
CC1COCCN1c1cc(C2(O)CC3CCC(C2)O3)c2cnn(-c3ccn[nH]3)c2n1 (stereo unspecified) + Cc1cnc(CNC(=O)c2c(=O)c3ccc(N4CCCN(C)CC4)nc3n3c2sc2ccccc23)cn1: > 7.50

So what's the measured pIC50 for this one? CC(=O)O[C@H]1C(=O)[C@@]2(C)[C@H]([C@H](OC(=O)c3ccccc3)[C@]3(O)C[C@H](OC(=O)[C@H](O)[C@@H](NC(=O)c4ccccc4)c4ccccc4)C(C)=C1C3(C)C)[C@]1(OC(C)=O)CO[C@@H]1C[C@@H]2O + CN(C)c1ccc(Nc2c3ccc(NC(=O)CCN4CCCC4)cc3nc3cc(NC(=O)CCN4CCCC4)ccc23)cc1
> 7.50

====

Each item that follows carries a reported viability, T/C.
system: 633275-114-R-J1-PDC complex spheroids, viability; experiment: Anticancer human tumor 633275-114-R-J1-PDC cell line growth inhibition [GQUAD]; settings: second compound 0.1 µM; first compound 1 µM; stronger effect = lower value;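 note: spheroids exposed to the agents for seven days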;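 for viability, T/C: percent of DMSO vehicle control viability which is 100%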
The figure you give is taken to be in %; do not add the unit.

Examples with answers:
C=CC(=O)N1CCN(c2nc(=O)n(-c3c(C)ccnc3C(C)C)c3nc(-c4c(O)cccc4F)c(F)cc23)C(C)C1 (configuration not stated) + Cc1[nH]c2ccc(F)cc2c1-c1nc2c3cccnc3c3ncccc3c2[nH]1: 100
Nc1ccn(C2OC(CO)C(O)C2(F)F)c(=O)n1 (configuration not stated) + CN(C)c1ccc(Nc2c3ccc(NC(=O)CCN4CCCC4)cc3nc3cc(NC(=O)CCN4CCCC4)ccc23)cc1: 22.4
O=c1[nH]cc(F)c(=O)[nH]1 + CN(C)c1ccc(Nc2c3ccc(NC(=O)CCN4CCCC4)cc3nc3cc(NC(=O)CCN4CCCC4)ccc23)cc1: 96.6

So what's the measured viability, T/C for this one? COc1ccc([C@@H](O)c2cc(-c3ncnc4cc(N5CCOCC5)ccc34)c(F)cc2Cl)nn1 + Cc1[nH]c2ccc(F)cc2c1-c1nc2c3cccnc3c3ncccc3c2[nH]1
66.5

So what's the measured viability, T/C for this one? COc1cccc2c1C(=O)c1c(O)c3c(c(O)c1C2=O)CC(O)(C(=O)CO)CC3OC1CC(N)C(O)C(C)O1 (configuration not stated) + Cc1[nH]c2ccc(F)cc2c1-c1nc2c3cccnc3c3ncccc3c2[nH]1
20.6

So what's the measured viability, T/C for this one? CC1COCCN1c1cc(-c2ccnn2C)c2ccnc(-c3ccn[nH]3)c2n1 (configuration not stated) + Cc1cnc(CNC(=O)c2c(=O)c3ccc(N4CCCN(C)CC4)nc3n3c2sc2ccccc23)cn1
22.6

So what's the measured viability, T/C for this one? O=C(NO)c1cnc(N2CCN(S(=O)(=O)c3ccc4ccccc4c3)CC2)nc1 + Cc1cnc(CNC(=O)c2c(=O)c3ccc(N4CCCN(C)CC4)nc3n3c2sc2ccccc23)cn1
16.3

====

Test system: 633275-114-R-J1-PDC complex spheroids, viability
Assay: Anticancer human tumor 633275-114-R-J1-PDC cell line growth inhibition [GQUAD];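 note: spheroids exposed to the agents for seven days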;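 for viability, T/C: percent of DMSO vehicle control viability which is 100%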
Conditions: second compound 3.16 µM; first compound 10 µM; stronger effect = lower value
Excerpt: DNA G-quadruplex Stabilizer Agents in Combinations in Complex Spheroids A high-throughput screen of multi-cell type tumor spheroids was designed to identify active combinations of DNA G-quadruplex stabilizer agents and targeted small molecules. […] Compounds. […] If the clinical Cmax for an agent had not been determined, the highest concentration tested was 10 microM. […]
OBSERVATION TYPE: viability, T/C (%)
The figure you give is taken to be in %; do not add the unit.

Examples with answers:
COc1ncnc(C2CC2)c1-c1ncc2cnn(Cc3ccc(-c4nc(C(F)(F)F)cn4C(C)C)cc3)c2n1 + CN(C)c1ccc(Nc2c3ccc(NC(=O)CCN4CCCC4)cc3nc3cc(NC(=O)CCN4CCCC4)ccc23)cc1: 67.8
CC1COCCN1c1cc(C2(O)CC3CCC(C2)O3)c2cnn(-c3ccn[nH]3)c2n1 (stereo not given) + CN(C)c1ccc(Nc2c3ccc(NC(=O)CCN4CCCC4)cc3nc3cc(NC(=O)CCN4CCCC4)ccc23)cc1: 8.3
O=C(c1cc(Cc2n[nH]c(=O)c3ccccc23)ccc1F)N1CCN(C(=O)C2CC2)CC1 + Cc1cnc(CNC(=O)c2c(=O)c3ccc(N4CCCN(C)CC4)nc3n3c2sc2ccccc23)cn1: 31

So what's the measured viability, T/C for this one? O=C(NO)c1cnc(N2CCN(S(=O)(=O)c3ccc4ccccc4c3)CC2)nc1 + CN(C)c1ccc(Nc2c3ccc(NC(=O)CCN4CCCC4)cc3nc3cc(NC(=O)CCN4CCCC4)ccc23)cc1
2.65

So what's the measured viability, T/C for this one? O=C(NO)c1cnc(N2CCN(S(=O)(=O)c3ccc4ccccc4c3)CC2)nc1 + Cc1[nH]c2ccc(F)cc2c1-c1nc2c3cccnc3c3ncccc3c2[nH]1
2.67

====

Test system: 633275-114-R-J1-PDC complex spheroids, viability
Assay: Anticancer human tumor 633275-114-R-J1-PDC cell line growth inhibition [GQUAD];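 note: spheroids exposed to the agents for seven days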;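 for viability, T/C: percent of DMSO vehicle control viability which is 100%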
Details: second compound 10 µM; first compound 0.1 µM; stronger effect = lower value
Excerpt: DNA G-quadruplex Stabilizer Agents in Combinations in Complex Spheroids A high-throughput screen of multi-cell type tumor spheroids was designed to identify active combinations of DNA G-quadruplex stabilizer agents and targeted small molecules. […] Compounds. […] If the clinical Cmax for an agent had not been determined, the highest concentration tested was 10 microM. […]
OBSERVATION TYPE: viability, T/C (%)
The figure you give is taken to be in %; do not add the unit.

O=c1[nH]cc(F)c(=O)[nH]1 + Cc1[nH]c2ccc(F)cc2c1-c1nc2c3cccnc3c3ncccc3c2[nH]1: 73
C#Cc1c(F)ccc2cc(O)cc(-c3ncc4c(N5CC6CCC(C5)N6)nc(OCC56CCCN5CC(F)C6)nc4c3F)c12 (stereo not drawn) + Cc1[nH]c2ccc(F)cc2c1-c1nc2c3cccnc3c3ncccc3c2[nH]1: 60.7

Give recorded viability, T/C with 633275-114-R-J1-PDC complex spheroids, viability for the following compound: COc1cccc2c1C(=O)c1c(O)c3c(c(O)c1C2=O)CC(O)(C(=O)CO)CC3OC1CC(N)C(O)C(C)O1 (stereo not drawn) + CN(C)c1ccc(Nc2c3ccc(NC(=O)CCN4CCCC4)cc3nc3cc(NC(=O)CCN4CCCC4)ccc23)cc1
17.3
